target: IRAK4 (Homo sapiens (Human)); experiment: hPBMC IRAK4 degradation flow assay; format: cell-based; conditions: hPBMC monocyte, 20 hr, flow assay; read-out: IRAK4 degradation in hPBMC monocyte at 20 hr: Average external Abs DC50
Sequence (Q9NWZ3 whole entry): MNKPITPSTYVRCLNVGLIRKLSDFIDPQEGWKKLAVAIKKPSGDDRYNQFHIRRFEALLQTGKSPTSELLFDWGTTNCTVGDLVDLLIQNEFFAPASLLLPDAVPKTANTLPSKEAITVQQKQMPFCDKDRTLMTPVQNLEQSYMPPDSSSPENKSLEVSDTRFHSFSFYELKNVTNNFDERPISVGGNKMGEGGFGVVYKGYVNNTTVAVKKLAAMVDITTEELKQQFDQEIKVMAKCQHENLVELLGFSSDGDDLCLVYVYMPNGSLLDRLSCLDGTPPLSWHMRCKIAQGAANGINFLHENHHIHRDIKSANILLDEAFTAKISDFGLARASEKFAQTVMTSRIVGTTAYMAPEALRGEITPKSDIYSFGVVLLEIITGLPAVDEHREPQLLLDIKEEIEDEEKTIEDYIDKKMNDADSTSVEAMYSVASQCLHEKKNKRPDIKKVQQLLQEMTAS
Value kind: DC50

Cn1c(=O)n(C2CCC(=O)NC2=O)c2cccc(CCCC3CCN(C[C@H]4CC[C@H](n5cc(NC(=O)c6cnn7ccc(N8C[C@H]9C[C@@H]8CO9)nc67)c(C(F)F)n5)CC4)CC3)c21 (some centres unmarked)    < 10 nM

Fill blank: measured DC50 of the compound CN(CC1CCN(c2cccc3c2C(=O)N(C2CCC(=O)NC2=O)C3=O)CC1)C[C@H]1CC[C@H](n2cc3cc(NC(=O)c4cccc(C(F)(F)F)n4)c(C(C)(C)O)cc3n2)CC1 (some centres unmarked) is ____.
10 to 100 nM

Fill blank: measured DC50 of the compound CN(CC(CCCOCCCc1cccc2c1n(C)c(=O)n2C1CCC(=O)NC1=O)C(=O)O)C[C@H]1CC[C@H](n2cc(NC(=O)c3coc(-c4ccnc(NCC5CC5)c4)n3)c(C(F)F)n2)CC1 (some centres unmarked) is ____.
10 to 100 nM

Fill blank: measured DC50 of the compound CN(C[C@H]1CC[C@H](n2cc3cc(NC(=O)c4cccc(C(F)(F)F)n4)c(C(C)(C)O)cc3n2)CC1)C1CCC2(CC1)CC(CNc1cccc3c1C(=O)N(C1CCC(=O)NC1=O)C3=O)C2 (some centres unmarked) is ____.
10 to 100 nM

Fill blank: measured DC50 of the compound Cn1c(=O)n(C2CCC(=O)NC2=O)c2cccc(CN3CCC4(CC3)CCN(C(=O)c3ccc(C5N=C(NC(=O)c6cnn7ccc(N8C[C@H]9C[C@@H]8CO9)nc67)C(C(F)F)=N5)cc3)CC4)c21 (some centres unmarked) is ____.
< 10 nM

Fill blank: measured DC50 of the compound Cn1c(=O)n(C2CCC(=O)NC2=O)c2cccc(CCCCC3CCN(C(=O)c4ccc(-n5cc(NC(=O)c6cnn7ccc(N8C[C@H]9C[C@@H]8CO9)nc67)c(C(F)F)n5)cc4)CC3)c21 (some centres unmarked) is ____.
< 10 nM

Fill blank: measured DC50 of the compound CC(C)(O)c1cc2nn([C@H]3CC[C@H](CN4CCC(COCCCNc5cccc6c5C(=O)N(C5CCC(=O)NC5=O)C6=O)CC4)CC3)cc2cc1NC(=O)c1cccc(C(F)(F)F)n1 (some centres unmarked) is ____.
< 10 nM

---

Molecular target: UniProt:Q9NWZ3
Experiment: IRAK4 degradation in human whole blood lymphocyte - flow cytometry
Type: cell-based
Details: read-out: IRAK4 degradation in whole blood lymphocyte-Flow cytometry: Average external Abs IC50
Procedure: Human whole blood IRAK4 degradation flow assay. Whole blood was collected in heparinized tubes and plated on the same day as draw (day 0). Whole blood was aliquoted into deep well plates. Compound plates were prepared and a 10 point, 5-fold dilution was performed with a final DMSO concentration of 0.1%. […] Twenty hour dose curves were calculated using a 4 parameter logistic regression curve fit, no constraints (Top doses were removed if hook effects were observed and the bottom was constrained to 0).
Value kind: DC50

Past entries and their recorded results:
CC(C)c1nn([C@H]2CC[C@H](CN(C)C[C@@H]3CN(CCCc4ccc5c(c4)n(C)c(=O)n5C4CCC(=O)NC4=O)CCO3)CC2)cc1NC(=O)c1coc(-c2ccnc(NCC3CC3)c2)n1 (some centres unmarked)    0.1 to 0.5 µM
CN(CCCOCCCc1cccc2c1n(C)c(=O)n2C1CCC(=O)NC1=O)C(=O)[C@H]1CC[C@H](n2cc(NC(=O)c3coc(-c4ccnc(NCC(F)(F)F)c4)n3)c(C(N)=O)n2)CC1 (some centres unmarked) [I-28]    0.1 to 0.5 µM
CN(C[C@@H]1CN(CCCc2ccc3c(c2)n(C)c(=O)n3C2CCC(=O)NC2=O)CCO1)C(=O)[C@H]1CC[C@H](n2cc(NC(=O)c3coc(-c4ccnc(NCC5CC5)c4)n3)c(C(F)F)n2)CC1 (some centres unmarked)    0.05 to 0.1 µM
CN(C[C@H]1CN(CCCc2ccc3c(c2)n(C)c(=O)n3C2CCC(=O)NC2=O)CCO1)C[C@H]1CC[C@H](n2cc(NC(=O)c3coc(-c4ccnc(NCC5CC5)c4)n3)c(C(F)F)n2)CC1 (some centres unmarked)    < 0.05 µM
CN(C[C@H]1CN(CCCc2ccc3c(c2)n(C)c(=O)n3C2CCC(=O)NC2=O)CCO1)C(=O)[C@H]1CC[C@H](n2cc(NC(=O)c3coc(-c4ccnc(NCC5CC5)c4)n3)c(C(F)F)n2)CC1 (some centres unmarked)    0.1 to 0.5 µM
O=C1CCC(n2c(=O)oc3cc(CCCOCCOCCNC[C@H]4CC[C@H](n5cc(NC(=O)c6coc(-c7ccnc(NCC8CC8)c7)n6)c(C(F)F)n5)CC4)ccc32)C(=O)N1 (some centres unmarked)    < 0.05 µM
CN(CCCOCCCc1ccc2c(c1)c1cccnc1n2C1CCC(=O)NC1=O)C[C@H]1CC[C@H](n2cc(NC(=O)c3coc(-c4ccnc(NCC5CC5)c4)n3)c(C(F)F)n2)CC1 (some centres unmarked)    0.1 to 0.5 µM
O=C1CCC(n2c(=O)oc3c(CCCOCCNC(=O)[C@H]4CC[C@H](n5cc(NC(=O)c6coc(-c7ccnc(NCC8CC8)c7)n6)c(C(F)F)n5)CC4)cccc32)C(=O)N1 (some centres unmarked)    0.1 to 0.5 µM

Fill blank: measured DC50 of the molecule Cn1c(=O)n(C2CCC(=O)NC2=O)c2cccc(CCCOCCNC[C@H]3CC[C@H](n4cc(NC(=O)c5coc(-c6ccnc(NCC(F)(F)F)c6)n5)c(C(N)=O)n4)CC3)c21 (some centres unmarked) is ____.
< 0.05 µM

Fill blank: measured DC50 of the molecule CN(C[C@H]1CC[C@H](n2cc(NC(=O)c3coc(-c4ccnc(NCC5CC5)c4)n3)c(C(F)F)n2)CC1)C1CCN(Cc2cccc3c2n(C)c(=O)n3C2CCC(=O)NC2=O)CC1 (some centres unmarked) is ____.
0.05 to 0.1 µM

Fill blank: measured DC50 of the molecule CN(CC1CCN(Cc2cccc3c2n(C)c(=O)n3C2CCC(=O)NC2=O)CC1)C[C@H]1CC[C@H](n2cc(NC(=O)c3coc(-c4ccnc(NCC5CC5)c4)n3)c(C(F)F)n2)CC1 (some centres unmarked) is ____.
0.05 to 0.1 µM

Fill blank: measured DC50 of the molecule CN(CC1CCN(CCC#Cc2ccc3c(c2)n(C)c(=O)n3C2CCC(=O)NC2=O)CC1)C(=O)[C@H]1CC[C@H](n2cc(NC(=O)c3coc(-c4ccnc(NCC5CC5)c4)n3)c(C(F)F)n2)CC1 (some centres unmarked) is ____.
< 0.05 µM

Fill blank: measured DC50 of the molecule O=C1CCC(N2C[C@H](c3cccc(C#CCN4CCO[C@@H](CNC[C@H]5CC[C@H](n6cc(NC(=O)c7coc(-c8ccnc(NCC9CC9)c8)n7)c(C(F)F)n6)CC5)C4)c3)OC2=O)C(=O)N1 (some centres unmarked) is ____.
0.1 to 0.5 µM

Fill blank: measured DC50 of the molecule O=C1CCC(n2c3cc(CCCOCCOCCNC[C@H]4CC[C@H](n5cc(NC(=O)c6coc(-c7ccnc(NCC8CC8)c7)n6)c(C(F)F)n5)CC4)ccc3c3cccnc32)C(=O)N1 (some centres unmarked) is ____.
> 1 µM

Taken from patent US11352350B2.
